Source: patent US7601737B2

Tested on: human cryopreserved hepatocytes
Assay: in vitro
Conditions: human, hepatocytes
Decide using % Σ Clint rac. Omeprazole alone. Strictly below 70%: 1. Equal to or above 70%: 0.

Q) Quick check: % Σ Clint rac. Omeprazole of COc1ccc2[nH]c([S+]([O-])Cc3ncc(C)c(OC)c3C)nc2c1 (racemic) [rac. Omeprazole, reference compound] under 70%?
A) 0

Q) Answer whether the molecule [2H]C([2H])([2H])Oc1ccc2[nH]c([S+]([O-])Cc3ncc(C)c(OC)c3C)nc2c1 (racemic) has % Σ Clint rac. Omeprazole strictly less than 70%
A) 0

Q) Say whether its % Σ Clint rac. Omeprazole is strictly beneath 70%. Entry: [2H]C([2H])([2H])Oc1ccc2[nH]c([S@@+]([O-])Cc3ncc(C)c(OC([2H])([2H])[2H])c3C)nc2c1.[Na]
A) 1

Q) Is 70% strictly greater than the molecule's reported % Σ Clint rac. Omeprazole? molecule: COc1ccc2nc([S@@+]([O-])Cc3ncc(C)c(OC)c3C)[nH]c2c1 [(S)-omeprazole sodium, reference compound]
A) 1

----------
Assay: in vitro
Details: human, hepatocytes
For each record, write down the corresponding hepatocyte CLint.
Record the value in µL/min/1e6 cells, omitting the unit from your answer.

Q) Value lookup for hepatocyte CLint; key = [2H]C([2H])([2H])Oc1ccc2[nH]c([S+]([O-])Cc3ncc(C)c(OC([2H])([2H])[2H])c3C)nc2c1 (racemic) [Example 47]
A) 1.4

Q) Give the measured hepatocyte CLint of [2H]C([2H])([2H])Oc1c(C)cnc(C[S+]([O-])c2nc3cc(OC)ccc3[nH]2)c1C (racemic) [Example 48] .
A) 1.4

Q) Param item = [2H]C([2H])([2H])Oc1ccc2[nH]c([S+]([O-])Cc3ncc(C)c(OC)c3C)nc2c1 (racemic) [Example 46] ; retrieve measured hepatocyte CLint.
A) 2.1

Q) # hepatocyte CLint lookup, item [2H]C([2H])([2H])Oc1ccc2[nH]c([S@@+]([O-])Cc3ncc(C)c(OC([2H])([2H])[2H])c3C)nc2c1.[Na] [Example 49]
A) 0.8

Q) Recorded hepatocyte CLint for COc1ccc2nc([S@@+]([O-])Cc3ncc(C)c(OC)c3C)[nH]c2c1 [(S)-omeprazole sodium, reference compound] , please?
A) 0.7

Q) Report hepatocyte CLint for COc1ccc2[nH]c([S+]([O-])Cc3ncc(C)c(OC)c3C)nc2c1 (racemic) [rac. Omeprazole, reference compound] please.
A) 2

----------
Test: in vitro
Details: human, hepatocytes
Decide by hepatocyte CLint: equal to or exceeding 20 µL/min/1e6 cells means yes (1), less means no (0).

Q) Textbook exercise: given the entry [2H]C([2H])([2H])Oc1ccnc(C[S@@+]([O-])c2nc3cc(OC(F)F)ccc3[nH]2)c1OC.[Na] [Example 37] , state whether its hepatocyte CLint is greater than or equal to 20 µL/min/1e6 cells.
A) no (0)

Q) Record O.[2H]C([2H])([2H])Oc1ccnc(C[S+]([O-])c2nc3cc(OC(F)F)ccc3[nH]2)c1OC.[Na] (racemic) [Example 32] ; criterion: hepatocyte CLint no lower than 20 µL/min/1e6 cells. Met?
A) no (0)

Q) Please indicate if the recorded hepatocyte CLint for COc1ccnc(C[S+]([O-])c2nc3ccc(OC(F)F)cc3[nH]2)c1OC (racemic) [rac. pantoprazole Na 1.5 H2O, reference compound] meets or exceeds 20 µL/min/1e6 cells.
A) yes (1)

Q) Quick check, hepatocyte CLint >= 20 µL/min/1e6 cells? [2H]C([2H])([2H])Oc1ccnc(C[S@+]([O-])c2nc3cc(OC(F)F)ccc3[nH]2)c1OC.[Na] [Example 36]
A) no (0)

Q) Please indicate if the recorded hepatocyte CLint for O.[2H]COc1ccnc(C[S+]([O-])c2nc3cc(OC(F)F)ccc3[nH]2)c1OC.[Na] (racemic) [Example 25] meets or exceeds 20 µL/min/1e6 cells.
A) no (0)

Q) Textbook exercise: given the entry [2H]C([2H])([2H])Oc1c(OC)ccnc1C[S+]([O-])c1nc2cc(OC(F)F)ccc2[nH]1 (racemic) [Example 22] , state whether its hepatocyte CLint is greater than or equal to 20 µL/min/1e6 cells.
A) yes (1)

Q) Form field: hepatocyte CLint at least 20 µL/min/1e6 cells? Entry: O.[2H]C([2H])Oc1ccnc(C[S+]([O-])c2nc3cc(OC(F)F)ccc3[nH]2)c1OC.[Na] (racemic) [Example 24]
A) no (0)
